Test system: MDA-MB-231 breast
Assay: NCI-60 one-dose screen, 48 h (100 = growth as untreated, 0 = no growth, -100 = all killed)
Settings: 10 µM unless noted
This is part of a sample that, as a whole, favours compounds with a hit. Of some 83,000 tested, about 20% had one in any assay.
Label scheme for growth: lower than 60% is condition not met, 60% and above is condition met.

Use these answered entries as a reference point.
Prompt: Answer whether growth of C[C@H](NC(=O)[C@@H](C)N)[C@H](Oc1ccc2c(cnn2-c2ccc(F)cc2)c1)c1ccc2c(c1)OCCO2 is greater than or equal to 60%.
Response: condition not met

Prompt: Answer whether growth of CN1C(=O)N(C)C2Nn3c(s/c(=C\c4ccc(C(F)(F)F)cc4)c3=O)=NC21 (stereo not drawn) is greater than or equal to 60%.
Response: condition met

Prompt: Answer whether growth of CC(C)N1CCN(Cc2ccc3c(NNC(=O)c4ccccc4)nc4cc(F)ccc4n23)CC1 is greater than or equal to 60%.
Response: condition not met

Prompt: Answer whether growth of COc1cnc2c(c1)C(=O)c1c-2n(CCCNCCO)c(=O)c2ccncc12 is greater than or equal to 60%.
Response: condition not met

Further cases:
Prompt: Answer whether growth of O=[N+]([O-])c1ccc(N/N=C(/C(=N/Nc2ccc([N+](=O)[O-])cc2)c2ccccc2)c2ccccc2)cc1 is greater than or equal to 60%.
Response: condition met

Prompt: Answer whether growth of O=S(=O)(Nc1ccc(Cl)cc1)c1ccc(-c2cnc(C3CC3)o2)cc1 is greater than or equal to 60%.
Response: condition not met
